Entry source: ChEMBL document CHEMBL3808316

Biological target: Kappa-type opioid receptor (Homo sapiens, UniProt P41145)
Sequence (P41145 whole entry): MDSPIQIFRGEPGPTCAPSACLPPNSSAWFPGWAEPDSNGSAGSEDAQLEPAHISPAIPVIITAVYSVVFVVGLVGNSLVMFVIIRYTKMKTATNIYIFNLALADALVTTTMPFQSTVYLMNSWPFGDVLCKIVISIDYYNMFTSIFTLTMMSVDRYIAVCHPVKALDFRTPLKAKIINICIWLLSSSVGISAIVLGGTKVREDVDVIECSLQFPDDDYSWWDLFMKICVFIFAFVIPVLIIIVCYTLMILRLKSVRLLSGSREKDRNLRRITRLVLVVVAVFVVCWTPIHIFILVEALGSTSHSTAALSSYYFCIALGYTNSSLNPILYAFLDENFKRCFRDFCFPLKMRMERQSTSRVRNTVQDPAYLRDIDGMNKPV
Experiment: Displacement of [3H]diprenorphine from human kappa opioid receptor expressed in CHO cell membranes at 10^-5 M after 30 mins by liquid scintillation counting analysis
endpoint: inhibition (%)

Some compounds with recorded inhibition:
compound="CC[N+]1(CC2c3ccccc3CCN2C(=O)C2CC(=O)c3ccc(Cl)cc32)CCCC1 (stereo not given)" value_unit=% value=89.1
compound="C[N+]1(CC2c3cc(F)ccc3CCN2C(=O)C2CC(=O)c3ccc(Cl)cc32)CCCC1 (stereo not given)" value_unit=% value=97.4
compound="COc1ccc2c(c1)CCN(C(=O)C1CC(=O)c3ccc(Cl)cc31)C2C[N+]1(C)CCCC1 (stereo not given)" value_unit=% value=85.5

(P) O=C1CC(C(=O)N2CCc3ccccc3C2C[N+]2(Cc3ccccc3)CCCC2)c2cc(Cl)ccc21 (stereo not given)
(Q) COc1ccc2c(c1)C(C[N+]1(C)CCCC1)N(C(=O)C1CC(=O)c3ccc(Cl)cc31)CC2 (stereo not given)
Lookup: Would you let me know which has the greater inhibition value, P or Q ? Answer with the label corresponding to your selection.
Found: P

----------
Target: Kappa-type opioid receptor (Homo sapiens, UniProt P41145)
Assay: Displacement of [3H]diprenorphine from human kappa opioid receptor expressed in CHO cell membranes at 10^-6 M after 30 mins by liquid scintillation counting analysis
endpoint: inhibition (%)

compound="C[N+]1(CC2c3ccc(O)cc3CCN2C(=O)C2CC(=O)c3ccc(Cl)cc32)CCCC1 (stereo not given)" experimental_target="Kappa-type opioid receptor (Homo sapiens, UniProt P41145)" value=67.3

(1) C[N+]1(CC2c3cc(F)ccc3CCN2C(=O)C2CC(=O)c3ccc(Cl)cc32)CCCC1 (stereo not given)
(2) O=C1CC(C(=O)N2CCc3ccccc3C2C[N+]2(Cc3ccccc3)CCCC2)c2cc(Cl)ccc21 (stereo not given)
(3) C[N+]1(CC2c3ccccc3CCN2C(=O)C2CC(=O)c3ccc(Cl)cc32)CCCC1 (stereo not given)
(4) O=C1CC(C(=O)N2CCc3ccccc3C2C[N+]2(Cc3ccc(F)cc3)CCCC2)c2cc(Cl)ccc21 (stereo not given)
Lookup: Put the items in order so that reported inhibition rises from first to last. To answer, arrange all of the labels according to the requested order.
Found: 4, 3, 2, 1
(4: 0%, 3: 10.8%, 2: 43.1%, 1: 86%)

----------
Target: Mu-type opioid receptor (Rattus norvegicus)
Test: Displacement of [3H]diprenorphine from rat mu opioid receptor expressed in CHO cell membranes at 10^-6 M after 30 mins by liquid scintillation counting analysis
endpoint: inhibition (%)

Some compounds with recorded inhibition:
compound="C[N+]1(CC2c3ccccc3CCN2C(=O)C2CC(=O)c3ccc(Cl)cc32)CCCC1 (centres undefined)" value=0
compound="CCCC[N+]1(CC2c3ccccc3CCN2C(=O)C2CC(=O)c3ccc(Cl)cc32)CCCC1.[I-] (centres undefined)" value=28.8
compound="O=C1CC(C(=O)N2CCc3ccccc3C2C[N+]2(Cc3ccc(F)cc3)CCCC2)c2cc(Cl)ccc21 (centres undefined)" value=0
compound="O=C1CC(C(=O)N2CCc3ccccc3C2C[N+]2(Cc3ccc(Cl)cc3)CCCC2)c2cc(Cl)ccc21 (centres undefined)" value=0
compound="O=C1CC(C(=O)N2CCc3ccccc3C2C[N+]2(Cc3ccccc3)CCCC2)c2cc(Cl)ccc21 (centres undefined)" value=0
compound="C[N+]1(CC2c3ccc(O)cc3CCN2C(=O)C2CC(=O)c3ccc(Cl)cc32)CCCC1 (centres undefined)" value=8.2
compound="O=C1CC(C(=O)N2CCc3ccccc3C2C[N+]2(Cc3ccc(Cl)cc3Cl)CCCC2)c2cc(Cl)ccc21 (centres undefined)" value=0
compound="C=CC[N+]1(CC2c3ccccc3CCN2C(=O)C2CC(=O)c3ccc(Cl)cc32)CCCC1 (centres undefined)" value=37.4

(a) COc1ccc(C[N+]2(CC3c4ccccc4CCN3C(=O)C3CC(=O)c4ccc(Cl)cc43)CCCC2)cc1 (centres undefined)
(b) COc1ccc2c(c1)CCN(C(=O)C1CC(=O)c3ccc(Cl)cc31)C2C[N+]1(C)CCCC1 (centres undefined)
(c) C[N+]1(CC2c3cc(F)ccc3CCN2C(=O)C2CC(=O)c3ccc(Cl)cc32)CCCC1 (centres undefined)
Lookup: Put the items in order so that reported inhibition rises from first to last. To answer, arrange all of the labels according to the requested order.
Found: a, b, c
